Each entry below carries its recorded growth.
Tested on: UO-31 renal
assay method text: NCI-60 one-dose screen, 48 h (100 = growth as untreated, 0 = no growth, -100 = all killed)
conditions: 10 µM unless noted
Method: Growth inhibition of the UO-31 human tumor cell line is measured as a screen for anti-cancer activity. Cells are grown in 96 well plates and exposed to the test compound for 48 hours. Compounds are tested at a single concentration, which is 10^-5 M for most compounds. The reported endpoint is percent growth (GI% or GIPRCNT), where numbers from 0 - 100% represent growth inhibition, and numbers from -100% - 0 represent cell death. For example, a value of 40 represents 60% growth inhibition. […]
This is part of a sample that, as a whole, favours compounds with a hit. Of some 83,000 tested, about 20% had one in any assay.

{"mol smiles": "N#C/C(=C\\c1ccc(Br)cc1)n1nnc2cc(Cl)c(Cl)cc21", "growth (%)": 35.1}
{"mol smiles": "CSc1ncc(C)c(Nc2ccc(Cl)cc2)n1", "growth (%)": 76.4}
{"mol smiles": "Clc1ccc(-c2nnc(-c3ccco3)o2)cc1", "growth (%)": 84.4}
{"mol smiles": "O=C(NC(=S)Nc1ccc(-c2nc3ccccc3[nH]2)cc1)c1ccc2ccccc2c1", "growth (%)": -84.4}
{"mol smiles": "Cc1nc(Nc2ccc(NC(=S)Nc3ccccc3)cc2)c2ccccc2n1", "growth (%)": 85.7}
{"mol smiles": "N#Cc1cnn2c(-c3ccc(Cl)cc3)nc(NCCc3ccccc3)nc12", "growth (%)": 72.9}

* * *

Tested on: UACC-62 melanoma
assay method text: NCI-60 one-dose screen, 48 h (100 = growth as untreated, 0 = no growth, -100 = all killed)
conditions: 10 µM unless noted
About 83,000 compounds went through this panel and 20% of them were active in at least one assay; those are over-represented in the sample as a whole.

{"compound": "CCCc1nc2ccccn2c1Nc1ccc(C(=O)NO)cc1", "system tested": "UACC-62 melanoma", "growth, %": 82.7}
{"compound": "Cn1ncc2c(Nc3ccc(Br)cc3)nc(Nc3ccc(Br)cc3)nc21", "system tested": "UACC-62 melanoma", "growth, %": 56.1}
{"compound": "CN(C)c1ccc(-c2cc(-c3ccc(Nc4nc(Nc5ccccc5)nc(Nc5ccc(Cl)cc5)n4)cc3)nc(N)n2)cc1", "system tested": "UACC-62 melanoma", "growth, %": 49.9}
{"compound": "COc1ccc(OC)c(Nc2nc3nonc3nc2Nc2cc(OC)ccc2OC)c1", "system tested": "UACC-62 melanoma", "growth, %": 47}
{"compound": "CCN(CC)CCCNC(=O)c1ccc(N)cc1", "system tested": "UACC-62 melanoma", "growth, %": 105}
{"compound": "COc1cc(-c2cccc([N+](=O)[O-])c2)c(-c2nc(-c3ccccc3)c(-c3ccccc3)n2C2CC2)cc1OC", "system tested": "UACC-62 melanoma", "growth, %": 53.5}
{"compound": "Cc1nc(Nc2cccc(NC(=O)Nc3ccc(Cl)cc3)c2)c2ccccc2n1", "system tested": "UACC-62 melanoma", "growth, %": 76.4}
{"compound": "CN(CCCCCCCCNc1ccnc2ccccc12)Cc1ccc(-c2ccc(-c3ccc(C#N)cc3)s2)cc1", "system tested": "UACC-62 melanoma", "growth, %": -37.4}
{"compound": "COC(=O)Nc1nc2ccc(C(=O)C3CC3)cc2[nH]1", "system tested": "UACC-62 melanoma", "growth, %": 30.3}
{"compound": "O=C(CCl)N1c2cccc3cccc(c23)N(C(=O)CCl)C1c1cn(-c2ccccc2)nc1-c1cccc([N+](=O)[O-])c1", "system tested": "UACC-62 melanoma", "growth, %": 86.8}
{"compound": "CC(C)CCC[C@@H](C)[C@H]1CCC2C3=CCn4c(=O)ccc(=O)n4C3CC[C@@]21C (stereo not given in full)", "system tested": "UACC-62 melanoma", "growth, %": -97.5}
{"compound": "CCO/C=N/C1=C(C#N)C(c2ccc(OC)cc2)c2c(c3ccccc3n(C)c2=O)O1 (stereo not given)", "system tested": "UACC-62 melanoma", "growth, %": 98.7}
{"compound": "C=C(C=O)C1CCC2(C(=O)O)CCC3(C)C(CCC4C5(C)CCC(O)C(C)(C)C5CCC43C)C12 (stereo not given)", "system tested": "UACC-62 melanoma", "growth, %": -84.2}
{"compound": "CC(=O)Nc1ccc2c(c1)Cc1c(F)cccc1-2", "system tested": "UACC-62 melanoma", "growth, %": 98.9}
{"compound": "CSc1ccc(Cl)c(C(=O)Nc2sccc2C(N)=O)c1", "system tested": "UACC-62 melanoma", "growth, %": 81.1}
{"compound": "COc1cc(C2CC(=O)Nc3n[nH]c(-c4ccccc4)c32)cc(OC)c1OC (stereo not given)", "system tested": "UACC-62 melanoma", "growth, %": 38}
{"compound": "N#Cc1cnn2c(-c3ccc(Cl)cc3)nc(NC3CC3)nc12", "system tested": "UACC-62 melanoma", "growth, %": 85.6}
{"compound": "CCCCCCCCN(CCCCCCCC)C(=N)c1ccnc2ccccc12", "system tested": "UACC-62 melanoma", "growth, %": -74.5}
{"compound": "C=C(C)[C@@H]1CC[C@]2(C(=O)NCC(=O)O)CC[C@]3(C)[C@H](CC[C@@H]4[C@@]5(C)Cc6c([nH]c7ccccc67)C(C)(C)[C@@H]5CC[C@]43C)[C@@H]12", "system tested": "UACC-62 melanoma", "growth, %": 79.7}
{"compound": "COc1ccc(N(C)c2nc(Cl)nc3cnn(C)c23)cc1", "system tested": "UACC-62 melanoma", "growth, %": 32}

The values you see were collected from PubChem BioAssay (NCI).
